target: human MCH-R2 (Homo sapiens, UniProt Q969V1); assay: Aequorin bioluminescence functional assay, MCH-2R; details: MCH-2R EC50 (nM), Table 1; aequorin functional assay, 293-AEQ17 cells
Sequence (Q969V1 whole entry): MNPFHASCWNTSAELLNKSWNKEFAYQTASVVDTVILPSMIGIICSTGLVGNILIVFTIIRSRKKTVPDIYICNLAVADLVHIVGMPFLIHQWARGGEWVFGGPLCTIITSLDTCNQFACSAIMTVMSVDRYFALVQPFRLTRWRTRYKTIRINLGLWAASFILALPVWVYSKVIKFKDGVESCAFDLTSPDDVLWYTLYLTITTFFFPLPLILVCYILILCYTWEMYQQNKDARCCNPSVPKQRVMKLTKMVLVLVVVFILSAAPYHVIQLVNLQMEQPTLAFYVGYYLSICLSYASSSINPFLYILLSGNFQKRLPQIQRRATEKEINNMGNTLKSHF
Where a SMILES comes first, the peptide text is derived from it. Bridges are numbered along the chain shown (N, C = ends). [ ]: non-standard residue; d: D form. hArg = N=C(N)NCCCC[C@H](N)C(=O)O
EC50 reference
quantity name: EC50 (nM)

[[record]]
molecule = "CSCC[C@@H]1NC(=O)[C@@H](NC(=O)[C@H](CCCNC(=N)N)NC(C)=O)CSSC[C@@H](C(N)=O)NC(=O)[C@@H]2CCCN2C(=O)[C@H](CCCNC(=N)N)NC(=O)[C@H](Cc2ccc(O)cc2)NC(=O)[C@H](C(C)C)NC(=O)[C@H](C)NC(=O)CNC(=O)[C@H](CC(C)C)NC1=O [compound 23] (Ac-RCMLGAVYRPC-NH2; disulfide 2-11)"
quantity_name = "EC50"
units_label = "nM"
readout_relation = ">"
result_number = 1000

[[record]]
molecule = "CSCC[C@@H]1NC(=O)[C@@H](NC(=O)[C@H](CCCNC(=N)N)NC(C)=O)CSSC[C@@H](C(N)=O)NC(=O)[C@@H]2CCCN2C(=O)[C@H](CCCNC(=N)N)NC(=O)[C@H](Cc2ccc(O)cc2)NC(=O)[C@H](C(C)C)NC(=O)[C@H](CCCCNC(=N)N)NC(=O)[C@@H](C)NC(=O)[C@H](CC(C)C)NC1=O [compound 36] (Ac-RCML[dA][hArg]VYRPC-NH2; disulfide 2-11)"
quantity_name = "EC50"
units_label = "nM"
readout_relation = "="
result_number = 19

[[record]]
molecule = "CSCC[C@@H]1NC(=O)[C@@H](NC(=O)[C@H](CCCNC(=N)N)NC(C)=O)CSSC[C@@H](C(N)=O)NC(=O)[C@@H]2CCCN2C(=O)[C@H](CCCNC(=N)N)NC(=O)[C@H](Cc2ccc(O)cc2)NC(=O)[C@H](C(C)C)NC(=O)[C@H](CCCNC(=N)N)NC(=O)[C@@H](CC(N)=O)NC(=O)[C@H](CC(C)C)NC1=O [compound 18]"
quantity_name = "EC50"
units_label = "nM"
readout_relation = "="
result_number = 24

[[record]]
molecule = "CSCC[C@@H]1NC(=O)[C@@H](NC(=O)[C@H](CCCNC(=N)N)NC(C)=O)CSSC[C@@H](C(N)=O)NC(=O)[C@@H]2CCCN2C(=O)[C@H](CCCNC(=N)N)NC(=O)[C@H](Cc2ccc(O)cc2)NC(=O)[C@H](C(C)C)NC(=O)[C@H](CCCNC(=N)N)NC(=O)[C@@H](C)NC(=O)[C@H](CC(C)C)NC1=O [compound 13]"
quantity_name = "EC50"
units_label = "nM"
readout_relation = "="
result_number = 16

[[record]]
molecule = "CSCC[C@@H]1NC(=O)[C@@H](NC(=O)[C@H](CCCNC(=N)N)NC(C)=O)CSSC[C@@H](C(N)=O)NC(=O)[C@@H]2CCCN2C(=O)[C@H](CCCNC(=N)N)NC(=O)[C@H](Cc2ccccc2)NC(=O)[C@H](C(C)C)NC(=O)[C@H](CCCNC(=N)N)NC(=O)CNC(=O)[C@H](CC(C)C)NC1=O [compound 27]"
quantity_name = "EC50"
units_label = "nM"
readout_relation = "="
result_number = 12

[[record]]
molecule = "CSCC[C@@H]1NC(=O)[C@@H](NC(=O)[C@H](CCCNC(=N)N)NC(C)=O)CSSC[C@@H](C(N)=O)NC(=O)[C@@H]2CCCN2C(=O)[C@H](CCCNC(=N)N)NC(=O)[C@H](Cc2ccc(O)cc2)NC(=O)[C@H](C(C)C)NC(=O)[C@H](CCCNC(=N)N)NC(=O)[C@H](c2ccccc2)NC(=O)[C@H](CC(C)C)NC1=O [compound 12]"
quantity_name = "EC50"
units_label = "nM"
readout_relation = "="
result_number = 140

